biological target: HLA-B*58:01; test: IEDB peptide-MHC binding, purified MHC/direct/fluorescence; filed as Kd, often an IC50 or EC50 that approximates it; bounds were set here for any values at or beyond the usual limits of such assays; conditions: source organism: Bacillus mycoides
recorded endpoint: Kd (nM)
Value expressed in nM; do not type the unit.

Exercise: For the sequence shown here, "ITFQSILGY" , give the reported Kd.
Solution: 57.3

----------
molecular target: HLA-A*03:01; experiment: IEDB peptide-MHC binding, purified MHC/competitive/radioactivity; filed as Kd, often an IC50 or EC50 that approximates it; bounds were set here for any values at or beyond the usual limits of such assays; conditions: source organism: Dengue virus 3 Martinique/1243/1999
recorded endpoint: pKd
Reminder that pKd is minus the log10 of a molar concentration.

• CTNTFVLKK = 8.01

// next item, pKd requested
Exercise: For the sequence shown here, "KSGAIKVLK" , give the reported pKd.
Solution: 6.98

----------
target: HLA-B*57:01; assay: IEDB peptide-MHC binding, purified MHC/competitive/radioactivity; filed as Kd, often an IC50 or EC50 that approximates it; bounds were set here for any values at or beyond the usual limits of such assays; conditions: source organism: Dengue virus 3 Singapore/8120/1995
recorded endpoint: pKd
Reminder that pKd is minus the log10 of a molar concentration.

Exercise: For the sequence shown here, "KVMEITAEW" , give the reported pKd.
Solution: 7.74

----------
target: HLA-B*39:01; assay: IEDB peptide-MHC binding, purified MHC/competitive/fluorescence; filed as Kd, often an IC50 or EC50 that approximates it; bounds were set here for any values at or beyond the usual limits of such assays; conditions: source organism: Mycobacterium tuberculosis C
recorded endpoint: Kd (nM)
Value expressed in nM; do not type the unit.

Exercise: For the sequence shown here, "RPKPDYSAM" , give the reported Kd.
Solution: 1960

----------
molecular target: HLA-B*53:01; assay: IEDB peptide-MHC binding, purified MHC/competitive/fluorescence; filed as Kd, often an IC50 or EC50 that approximates it; bounds were set here for any values at or beyond the usual limits of such assays; conditions: source organism: Entamoeba histolytica HM-1:IMSS
recorded endpoint: Kd

Exercise: For the sequence shown here, "IESNPLFPV" , give the reported Kd.
Solution: ≥ 5 µM

----------
molecular target: HLA-B*40:02; test: IEDB peptide-MHC binding, purified MHC/competitive/radioactivity; filed as Kd, often an IC50 or EC50 that approximates it; bounds were set here for any values at or beyond the usual limits of such assays; conditions: source organism: Mammarenavirus guanaritoense
recorded endpoint: Kd (µM)
Value expressed in µM; do not type the unit.

Exercise: For the sequence shown here, "GEQVDLGPVL" , give the reported Kd.
Solution: 0.0526

----------
molecular target: HLA-B*57:01; assay: IEDB peptide-MHC binding, purified MHC/direct/fluorescence; filed as Kd, often an IC50 or EC50 that approximates it; bounds were set here for any values at or beyond the usual limits of such assays; settings: source organism: Vibrio cholerae
recorded endpoint: Kd

* AADFPGIAR | ≥ 20 µM

Exercise: For the sequence shown here, "KGHLPLLDK" , give the reported Kd.
Solution: ≥ 20 µM

----------
biological target: HLA-B*57:01; assay: IEDB peptide-MHC binding, purified MHC/competitive/radioactivity; filed as Kd, often an IC50 or EC50 that approximates it; bounds were set here for any values at or beyond the usual limits of such assays; conditions: source organism: Dengue virus 2 Jamaica/1409/1983
recorded endpoint: pKd
Reminder that pKd is minus the log10 of a molar concentration.

• FGSLGGVFTS = 5.66
• TSSQQKADWI = 5.59

// next item, pKd requested
Exercise: For the sequence shown here, "KASFIEVKSC" , give the reported pKd.
Solution: 6.96
